experiment: qHTS of Nrf2 Activators; conditions: AREc32 ARE-luciferase reporter, luminescence, 24 h; series mostly up to 46.1 µM; note: nearly all actives have a fitted effect of over 65% in size; note: potency is the fitted concentration of half-maximal effect
The campaign covered roughly 410,000 compounds. About 1,200 (0.29%) were called active. Another 2% or so got no clear call; they are omitted. The list comes from a sample in which actives are over-represented; it also holds close analogues and randomly drawn compounds.
measurement_name: Potency

As a guide, the following entries are already answered.
[[record]]
molecule = "CN(C)CCN=c1cc(-c2ccccc2)oc2ccc(Cl)cc12"
observed_result = "11.2 µM (active)"

[[record]]
molecule = "N/C(=N\\OS(=O)(=O)c1cccc([N+](=O)[O-])c1)c1ccncc1"
observed_result = "inactive"

[[record]]
molecule = "CCOc1ccc(CC(=O)NCCc2csc3nc(-c4ccccc4F)nn23)cc1"
observed_result = "inactive"

[[record]]
molecule = "O=C(Nc1nnc(C2CC2)s1)c1cc(Cl)sc1Cl"
observed_result = "20 µM (active)"

[[record]]
molecule = "CCc1cc(C(=O)Nc2nnc(C3CC3)s2)sc1C"
observed_result = "inactive"

[[record]]
molecule = "CC(C)(C)OC(=O)N1CCC(c2c(C(=O)NCCc3ccsc3)cnn2-c2ccc(F)cc2F)CC1"
observed_result = "inactive"


// Potency lookup, key: CC1CCCCN1Cc1c(O)ccc2c(=O)c(-c3cccc(Cl)c3)c(C(F)(F)F)oc12 (stereo unspecified)
inactive

Moving on to COc1cc(CCN=Cc2ccccc2O)c([N+](=O)[O-])cc1OC
inactive

Moving on to Cc1ccc(-c2noc(-c3nnn(-c4cccc(C(F)(F)F)c4)c3N)n2)cc1
inactive

Moving on to CCc1ccccc1OCC(=O)Nc1nnc(C2CC2)s1
inactive

Moving on to O=[N+]([O-])c1cccc(C=NN=Cc2ccccc2O)c1
10 µM (active)

---

assay: qHTS of Nrf2 Activators; settings: AREc32 ARE-luciferase reporter, luminescence, 24 h; series mostly up to 46.1 µM; note: nearly all actives have a fitted effect of over 65% in size
Hit rate of the full screen: of about 410,000 compounds, about 1,200 (0.29%) were called active. Inconclusive results (about 2%) are left out. Calls follow the shape of the dose curve; as a rule, active = well fitted activation curve with a large enough effect; inconclusive = small, poorly fitted or top-dose-only effect; inactive = flat fitted curve, though single readings scatter. This is one part of a sample in which actives are shown more often than they occur.
Mark one answer only. Choices: y (active), n (inactive)

How was N#Cc1ccc(C2N=C(c3ccccc3)NO2)cc1 (stereo unspecified) classified in this test?
n

Moving on to Nc1c(C(=O)c2cccs2)sc2nsc(SCCN3CCCCC3)c12
y

---

test: qHTS of Nrf2 Activators; conditions: AREc32 ARE-luciferase reporter (MCF7-derived line), luminescence, 24 h; series mostly up to 46.1 µM; note: nearly all actives have a fitted effect of over 65% in size
Among all 410,000 compounds or so, about 1,200 (0.29%) were called active. Roughly 2% stayed inconclusive and do not appear here. The call rests on the fitted dose curve; in most records, active means well fitted activation curve with a large enough effect; inconclusive means small, poorly fitted or top-dose-only effect; inactive means flat fitted curve, though single readings scatter. This is one part of a sample in which actives are shown more often than they occur.
Mark one answer only. Choices: active, inactive

[[record]]
compound = "CCc1cccc(NC(=O)COC(=O)c2cc(=O)c3ccccc3o2)c1"
category = "active"

[[record]]
compound = "Cc1ccc(C)c(N2CCN(C(c3ccccc3)c3nnc(-c4ccccc4)o3)CC2)c1 (stereo not given)"
category = "inactive"

[[record]]
compound = "COCc1c(C(=O)OCC(=O)Nc2ccc(OC(F)F)cc2)oc2ccccc12"
category = "inactive"


How was CCc1cccc(NC(=O)COC(=O)C2CCN(c3ccc(C(F)(F)F)cn3)CC2)c1 classified in this test?
inactive

Moving on to Cc1cc(C)nc(NS(=O)(=O)c2ccc(NC(=O)c3cc(=O)c4ccc(C)c(C)c4o3)cc2)n1
inactive
